# pKd per entry
# Target Or Test System: Human DR5 (Homo sapiens, UniProt O14763)
# Test: Binding affinity of antibody to human DR5 (BIAcore, CM5 chip)
# Conditions: equilibrium dissociation constant, Human DR5
pKd: −log10 of the molar value.

Molecule	pKd
DA34: humanized or deimmunized variant of parental clone D0; CDRs SEQ ID NO 1, 2, 7 / 4, 10, 13 (antibody, V domains shown) VH: AVTLDESGGGLQTPGGGLSLVCKGSGFTFSSFNMLWVRQAPGKGLEWVAGIGKSDRYTGYGSAVKGRATISRDDGQSTAYLQMNSLRAEDTAVYYCVKDAGSGCGSGGWTGACIDTWGHGTEVIVSS VL: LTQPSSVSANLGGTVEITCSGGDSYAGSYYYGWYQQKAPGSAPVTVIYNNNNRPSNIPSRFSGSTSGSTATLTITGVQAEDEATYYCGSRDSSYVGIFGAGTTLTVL	10.03
DA26: humanized or deimmunized variant of parental clone D0; CDRs SEQ ID NO 1, 2, 7 / 4, 10, 13 (antibody, V domains shown) VH: AVTLDESGGGLQTPGGGLSLVCKGSGFTFSSFNMLWVRQAPGKGLEWVAGIGKSDRYTGYGSAVKGRATISRDDGQSTVYLQMNSLRAEDTGTYYCVKDAGSGCGSGGWTGACIDTWGHGTEVIVSS VL: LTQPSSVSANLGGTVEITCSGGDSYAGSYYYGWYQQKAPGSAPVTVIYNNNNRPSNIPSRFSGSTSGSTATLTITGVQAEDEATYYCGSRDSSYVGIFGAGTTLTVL	12.00
